B1: Far upstream element-binding protein 1, residues 184 to 257; numbered along this chain, Q96AE4 (parent)
chain: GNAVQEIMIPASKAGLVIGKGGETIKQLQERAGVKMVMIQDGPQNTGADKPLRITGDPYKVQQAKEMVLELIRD

Variants of: B1
Experiment: abundance fitness (aPCA) (normalised: wild type 0, dead -1); higher = more abundant; growth selection in yeast, the domain comes from the species named
Conditions: Homo sapiens
Assignment: determine reported abundance fitness for the given variants.
Please give the numeric answer without any surrounding text.

Item `P43L` has what recorded abundance fitness? -0.053

Item `R31W` has what recorded abundance fitness? -0.221

Item `G56L` has what recorded abundance fitness? -1.28

Item `L16Y` has what recorded abundance fitness? -0.045

Item `K13W` has what recorded abundance fitness? -0.3

Item `L16K` has what recorded abundance fitness? -0.008

Item `I72V` has what recorded abundance fitness? 0.011

Item `T24S` has what recorded abundance fitness? -0.078

Item `I54K` has what recorded abundance fitness? -0.878

Item `V37Q` has what recorded abundance fitness? -0.025

Item `L52H` has what recorded abundance fitness? -0.853

Item `V37H` has what recorded abundance fitness? -0.178

Item `V68M` has what recorded abundance fitness? -0.156

Item `D74H` has what recorded abundance fitness? -0.167

Item `D41L` has what recorded abundance fitness? -0.095

Item `A48C` has what recorded abundance fitness? 0.053

Item `M36S` has what recorded abundance fitness? -0.556

Item `D41K` has what recorded abundance fitness? -0.007

Item `K60P` has what recorded abundance fitness? -0.179

Item `Q63S` has what recorded abundance fitness? -0.061

Item `M38Y` has what recorded abundance fitness? -0.094

Item `A11G` has what recorded abundance fitness? -0.098

Item `K13S` has what recorded abundance fitness? -0.078

Item `Q44V` has what recorded abundance fitness? -0.067

Item `D49I` has what recorded abundance fitness? -0.148

Item `Q29S` has what recorded abundance fitness? -0.029

Item `M36N` has what recorded abundance fitness? -0.712

Item `N45Y` has what recorded abundance fitness? -0.091

Item `S12H` has what recorded abundance fitness? -0.018

Item `I54G` has what recorded abundance fitness? -0.913

Item `K20C` has what recorded abundance fitness? -0.14

Item `I25E` has what recorded abundance fitness? -0.638

Item `L52N` has what recorded abundance fitness? -0.746

Item `G15N` has what recorded abundance fitness? 0.011

Item `K60A` has what recorded abundance fitness? -0.036

Item `E23D` has what recorded abundance fitness? -0.037

Item `G19M` has what recorded abundance fitness? -0.551

Item `N45I` has what recorded abundance fitness? -0.029

Item `K60V` has what recorded abundance fitness? -0.581

Item `Q40M` has what recorded abundance fitness? -0.085

Item `R53T` has what recorded abundance fitness? 0.008

Item `K35C` has what recorded abundance fitness? -0.11

Item `D74G` has what recorded abundance fitness? 0.008

Item `G19H` has what recorded abundance fitness? -0.376

Item `I25C` has what recorded abundance fitness? -0.267

Item `A14E` has what recorded abundance fitness? -0.014

Item `K26D` has what recorded abundance fitness? -0.111

Item `L69N` has what recorded abundance fitness? 0.019

Item `E66A` has what recorded abundance fitness? -0.091

Item `P58L` has what recorded abundance fitness? -0.068

Item `K65R` has what recorded abundance fitness? -0.012

Item `G47H` has what recorded abundance fitness? -0.167

Item `M67T` has what recorded abundance fitness? -0.116

Item `G15E` has what recorded abundance fitness? 0.04

Item `G15W` has what recorded abundance fitness? -0.005

Item `T55L` has what recorded abundance fitness? -0.05

Item `G47E` has what recorded abundance fitness? -0.038

Item `E66F` has what recorded abundance fitness? -0.18

Item `L71W` has what recorded abundance fitness? -0.189

Item `G21H` has what recorded abundance fitness? -0.015

Item `E23V` has what recorded abundance fitness? -0.063

Item `R73V` has what recorded abundance fitness? -0.038

Item `G47V` has what recorded abundance fitness? -0.054

Item `E66I` has what recorded abundance fitness? -0.224

Item `A11M` has what recorded abundance fitness? -0.094

Item `D74R` has what recorded abundance fitness? -0.089

Item `L16D` has what recorded abundance fitness? -0.053

Item `A32Q` has what recorded abundance fitness? -0.077

Item `P43T` has what recorded abundance fitness? -0.119

Item `D41C` has what recorded abundance fitness? -0.034

Item `E23G` has what recorded abundance fitness? 0.018

Item `M38W` has what recorded abundance fitness? -0.032

Item `A32C` has what recorded abundance fitness? 0.006

Item `Q40V` has what recorded abundance fitness? -0.052

Item `I39L` has what recorded abundance fitness? -0.008

Item `A14I` has what recorded abundance fitness? 0.039

Item `T55S` has what recorded abundance fitness? -0.053

Item `G15A` has what recorded abundance fitness? -0.126

Item `T46K` has what recorded abundance fitness? -0.066

Item `G19P` has what recorded abundance fitness? -0.629

Item `Q63P` has what recorded abundance fitness? -0.408

Item `A48N` has what recorded abundance fitness? -0.086

Item `L71V` has what recorded abundance fitness? -0.01

Item `Q62C` has what recorded abundance fitness? -0.037

Item `A48V` has what recorded abundance fitness? -0.015

Item `R73M` has what recorded abundance fitness? 0.001

Item `G42W` has what recorded abundance fitness? -0.33

Item `K26H` has what recorded abundance fitness? -0.198

Item `T24G` has what recorded abundance fitness? -0.008

Item `K13D` has what recorded abundance fitness? -0.155

Item `P51D` has what recorded abundance fitness? -0.358
